# Test system: Vero E6 infected with SARS-CoV-2
# EXPERIMENT_DESCRIPTION: inhibition of SARS-CoV-2 cytopathic effect; higher = more antiviral protection, active = above 15
# APPLIED_CONDITIONS: 833.33 nM; 48 h
Record form. Attribute: inhibition of SARS-CoV-2 cytopathic effect. Fill in for each entry.
Respond numerically; units are % and should not be typed.

inhibition of SARS-CoV-2 cytopathic effect of CO[C@H]1CC[C@@H](C(=O)c2ccc3nc4c(cc3c2)CCCO4)CC1 , assay on Vero E6 infected with SARS-CoV-2, is -0.98

inhibition of SARS-CoV-2 cytopathic effect of CCOC(=O)c1c(CSc2ccccc2)n(C)c2cc(Br)c(O)c(CN(C)C)c12 [arbidol] , assay on Vero E6 infected with SARS-CoV-2, is 4.8

inhibition of SARS-CoV-2 cytopathic effect of CN1CCN(c2cc(-c3ccccc3)nc(N)n2)CC1 , assay on Vero E6 infected with SARS-CoV-2, is 4.99

inhibition of SARS-CoV-2 cytopathic effect of Cc1cnc(NC(=O)Nc2cc(Br)c(C)cc2OC[C@@H]2CNCCO2)cn1 , assay on Vero E6 infected with SARS-CoV-2, is -2.34

inhibition of SARS-CoV-2 cytopathic effect of CNC(C)(C)Cc1ccccc1 [mephentermine] , assay on Vero E6 infected with SARS-CoV-2, is -3.76

inhibition of SARS-CoV-2 cytopathic effect of CC(C)OC(=O)CNC(=O)[C@H](CS)NC(=O)CC[C@H](N)C(=O)O [glutathione-monoisopropyl-ester] , assay on Vero E6 infected with SARS-CoV-2, is 0.55

inhibition of SARS-CoV-2 cytopathic effect of OCCN1CCN(CCCN2c3ccccc3Sc3ccc(Cl)cc32)CC1 [perphenazine] , assay on Vero E6 infected with SARS-CoV-2, is -2.86

inhibition of SARS-CoV-2 cytopathic effect of O=[N+]([O-])c1ccc(O)c([N+](=O)[O-])c1 [2,4-dinitrophenol] , assay on Vero E6 infected with SARS-CoV-2, is 2.61

inhibition of SARS-CoV-2 cytopathic effect of Nc1nc2c(ncn2COC(CO)CO)c(=O)[nH]1 [ganciclovir] , assay on Vero E6 infected with SARS-CoV-2, is -1.42

inhibition of SARS-CoV-2 cytopathic effect of CCn1cc(C(=O)O)c(=O)c2cc(F)c(N3CCN(C)CC3)cc21 [pefloxacin] , assay on Vero E6 infected with SARS-CoV-2, is -0.06

inhibition of SARS-CoV-2 cytopathic effect of C=CCn1c(=O)c2cnc(Nc3ccc(N4CCN(C)CC4)cc3)nc2n1-c1cccc(C(C)(C)O)n1 , assay on Vero E6 infected with SARS-CoV-2, is -3.99

inhibition of SARS-CoV-2 cytopathic effect of Cn1ncnc1COc1nn2c(-c3cc(F)ccc3F)nnc2cc1C(C)(C)C , assay on Vero E6 infected with SARS-CoV-2, is 1.53

inhibition of SARS-CoV-2 cytopathic effect of CCc1cccc2c3c([nH]c12)C(CC)(CC(=O)O)OCC3 (centres undefined) [etodolac] , assay on Vero E6 infected with SARS-CoV-2, is -1.67

inhibition of SARS-CoV-2 cytopathic effect of CCOc1ccc(Nc2nc(-c3c(C)nc4ccccn34)cs2)cc1 , assay on Vero E6 infected with SARS-CoV-2, is 2.2
